Data provenance is the Deep4Chem optical property database.

# assay-details: solvent given as SMILES
# run-parameters: in ClC(Cl)Cl
The molecules listed here are annotated with their absorption maximum.
Number in nm, nothing else.

Example cases with answers are listed next.
CCOC(CN1C(=O)C2=C(c3cccs3)N(CC(OCC)OCC)C(=O)C2=C1c1cccs1)OCC ... 533
N#Cc1ccc(Oc2ccc3c4c(cccc24)C(=O)N(CCO)C3=O)cc1 ... 352
CCC1=C(C)c2cc3ccccc3c(=O)n2C1=O ... 371
CCCCC1(CCCC)c2cc(-c3ccc(C=C4C(=O)c5ccccc5C4=O)cc3)ccc2-c2ccc(-c3ccc(C=C4C(=O)c5ccccc5C4=O)cc3)cc21 ... 445
CCC1=C(C)C2=Cc3cc4c(cc3B(O)N2C1=O)OCO4 ... 389
Cc1ccc(C2=C3C=CC(C#Cc4ccccc4)=[N+]3[B-](F)(F)n3c(Cl)ccc32)cc1 ... 564

Given the entry COc1ccc(C2=CC(c3ccccc3)=[N+]3C2=Nc2c(-c4ccc(OC)cc4)cc(-c4ccccc4)n2[B-]3(F)F)cc1 , report its measured absorption maximum.
664

What would you report for Cc1ccc2c(c1)c(C#N)c(C#N)c1cc(C)ccc12 ?
343

Next molecule: F[Si](c1ccccc1)(c1ccccc1)c1c2ccccc2cc2ccccc12
394
